Origin of the recorded values: paper PMC9814590

procedure-details: Hansen solubility parameters (HSP) from rated solvent library, optimized in HSPiP; Ra and RED versus water
Type: physicochemical
run-conditions: experimentally rated solvent library, HSPiP; unit assumed
Below: a set of entries, each annotated with reported R0 (intrinsic distance parameter).
quantity-measured: R0 (intrinsic distance parameter) (MPa^0.5)

[[record]]
mol = "c1ccc(-c2nc3c4ccccc4c4ccccc4c3o2)nc1"
reported_measurement = 8.8

[[record]]
mol = "c1ccc(-c2nc3c4cccnc4c4ncccc4c3[nH]2)cc1"
reported_measurement = 5.4

[[record]]
mol = "c1ccc(-c2nc3c4cccnc4c4ncccc4c3[nH]2)nc1"
reported_measurement = 7.9

[[record]]
mol = "c1ccc(-c2nc3c4ccccc4c4ccccc4c3o2)cc1"
reported_measurement = 6.6

[[record]]
mol = "c1ccc(-c2nc3c4cccnc4c4ncccc4c3o2)nc1"
reported_measurement = 12.3

[[record]]
mol = "c1cnc2c(c1)c1nc(-c3ccncc3)[nH]c1c1cccnc12"
reported_measurement = 7.5

[[record]]
mol = "c1cncc(-c2nc3c4cccnc4c4ncccc4c3[nH]2)c1"
reported_measurement = 7

[[record]]
mol = "c1cncc(-c2nc3c4cccnc4c4ncccc4c3o2)c1"
reported_measurement = 11

[[record]]
mol = "c1cnc2c(c1)c1nc(-c3ccncc3)oc1c1cccnc12"
reported_measurement = 10.7

[[record]]
mol = "c1ccc(-c2nc3c4cccnc4c4ncccc4c3o2)cc1"
reported_measurement = 10

[[record]]
mol = "c1ccc(-c2nc3c4ccccc4c4ccccc4c3[nH]2)cc1"
reported_measurement = 4.5


----------
procedure-details: Hansen solubility parameters (HSP) from rated solvent library, optimized in HSPiP; Ra and RED versus water
Type: physicochemical
run-conditions: distance to water HSP of dilute condition (15.1, 20.4, 16.5)
quantity-measured: Water1 Ra (MPa^0.5)

[[record]]
molecule = "c1ccc(-c2nc3c4cccnc4c4ncccc4c3[nH]2)cc1"
reported_measurement = 14.1

[[record]]
molecule = "C1=C(c2ccccc2)Cc2c1c1ccccc1c1ccccc21 [C1, 2-phenyl-1H-cyclophen[l]phenanthrene, reference compound]"
reported_measurement = 23.8

[[record]]
molecule = "c1ccc(-c2nc3c4cccnc4c4ncccc4c3o2)cc1"
reported_measurement = 10.8

[[record]]
molecule = "c1cncc(-c2nc3c4cccnc4c4ncccc4c3[nH]2)c1"
reported_measurement = 5.3

[[record]]
molecule = "c1ccc(-c2nc3c4cccnc4c4ncccc4c3[nH]2)nc1"
reported_measurement = 7.9

[[record]]
molecule = "c1cnc2c(c1)c1nc(-c3ccncc3)oc1c1cccnc12"
reported_measurement = 15


----------
Some molecules, each annotated with its measured Water contact angle.
procedure-details: Water-contact angle test
Assay type: physicochemical
run-conditions: C2-C12
quantity-measured: Water contact angle

[[record]]
molecule = "c1cnc2c(c1)c1nc(-c3ccncc3)[nH]c1c1cccnc12 [C4]"
reported_measurement = "0 °"

[[record]]
molecule = "c1ccc(-c2nc3c4ccccc4c4ccccc4c3o2)nc1 [C8]"
reported_measurement = "128.6 °"

[[record]]
molecule = "c1ccc(-c2nc3c4cccnc4c4ncccc4c3[nH]2)nc1 [C6]"
reported_measurement = "0 °"

[[record]]
molecule = "c1ccc(-c2nc3c4ccccc4c4ccccc4c3o2)cc1 [C7]"
reported_measurement = "135.2 °"

[[record]]
molecule = "c1cncc(-c2nc3c4cccnc4c4ncccc4c3o2)c1 [C11]"
reported_measurement = "0 °"


----------
procedure-details: Hansen solubility parameters (HSP) from rated solvent library, optimized in HSPiP; Ra and RED versus water
Assay type: physicochemical
run-conditions: experimentally rated solvent library, HSPiP
The reader will find reported δP (polar solubility parameter) values listed item by item below.
quantity-measured: δP (polar solubility parameter)

[[record]]
compound = "c1cnc2c(c1)c1nc(-c3ccncc3)[nH]c1c1cccnc12 [C4]"
reported_measurement = "15.6 (MPa)^0.5"

[[record]]
compound = "c1ccc(-c2nc3c4ccccc4c4ccccc4c3[nH]2)cc1 [C2]"
reported_measurement = "12.6 (MPa)^0.5"

[[record]]
compound = "c1ccc(-c2nc3c4cccnc4c4ncccc4c3[nH]2)cc1 [C3]"
reported_measurement = "9.1 (MPa)^0.5"

[[record]]
compound = "c1cncc(-c2nc3c4cccnc4c4ncccc4c3o2)c1 [C11]"
reported_measurement = "7.0 (MPa)^0.5"

[[record]]
compound = "c1ccc(-c2nc3c4cccnc4c4ncccc4c3o2)nc1 [C12]"
reported_measurement = "6.5 (MPa)^0.5"

[[record]]
compound = "c1ccc(-c2nc3c4cccnc4c4ncccc4c3o2)cc1 [C9]"
reported_measurement = "12.3 (MPa)^0.5"

[[record]]
compound = "c1cncc(-c2nc3c4cccnc4c4ncccc4c3[nH]2)c1 [C5]"
reported_measurement = "15.8 (MPa)^0.5"

[[record]]
compound = "c1ccc(-c2nc3c4cccnc4c4ncccc4c3[nH]2)nc1 [C6]"
reported_measurement = "12.8 (MPa)^0.5"

[[record]]
compound = "c1cnc2c(c1)c1nc(-c3ccncc3)oc1c1cccnc12 [C10]"
reported_measurement = "6.3 (MPa)^0.5"

[[record]]
compound = "c1ccc(-c2nc3c4ccccc4c4ccccc4c3o2)cc1 [C7]"
reported_measurement = "7.2 (MPa)^0.5"

[[record]]
compound = "c1ccc(-c2nc3c4ccccc4c4ccccc4c3o2)nc1 [C8]"
reported_measurement = "7.0 (MPa)^0.5"

